assay: chemical genetic growth profiling, strain panel (AID 1159580);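 further: tested at 20 µM; growth read once vehicle control cultures reached saturation at 30 °C; lower values mean less growth of the strain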; settings: S. cerevisiae deletion strains, growth OD, locus YCL029C, strain bik1
The campaign covered roughly 5,500 compounds. About 2,000 (36%) were called active. Not shown: some 18% with an inconclusive outcome. No stated cut-off is given here; in the data, active means normalized growth mostly below about 0.91 (no sharp cut-off); inconclusive means no clear call, values can overlap the other calls; inactive means mostly above about 0.92. The list shows a part of the results.
Entry note: the call must match one of active, inactive

Some entries whose results are on file:
| MOLECULE | CATEGORY LABEL |
| --- | --- |
| COP(=O)(OC)OC=C(Cl)Cl | inactive |
| CCN(CCO)CCCC(C)Nc1ccnc2cc(Cl)ccc12 (stereo not drawn) | inactive |

Dear all, I need the recorded test outcome for COc1ccc(OC)c(C(O)C(C)N)c1 (stereo not drawn) , thank you.
inactive

Dear all, I need the recorded test outcome for CC1(C)C(C=C(Cl)Cl)C1C(=O)OC(C#N)c1cccc(Oc2ccccc2)c1 (stereo not drawn) , thank you.
inactive

Dear all, I need the recorded test outcome for CC1=C(CC(=O)O)c2cc(F)ccc2/C1=C\c1ccc(S(C)=O)cc1 (stereo not drawn) , thank you.
inactive

Dear all, I need the recorded test outcome for `COc1ccc2cc([C@H](C)CO)ccc2c1` , thank you.
inactive

Dear all, I need the recorded test outcome for CC(C(=O)O)c1cccc(Oc2ccccc2)c1 (stereo not drawn) , thank you.
inactive

Dear all, I need the recorded test outcome for COc1cc2c(cc1OC)C1C(=O)c3ccc4c(c3OC1CO2)CCC(C)(C)O4 (stereo not drawn) , thank you.
inactive

Dear all, I need the recorded test outcome for CC(C(=O)O)c1cccc(C(=O)c2ccccc2)c1 (stereo not drawn) , thank you.
inactive
